organism: Mus musculus; settings: in vivo
Description: Logarithm of toxic activity (1/lethal dose) in mice bearing P388 leukemia on chronic regimen (Q 1-9)
Could you please report measured Log 1/LD50 for the items listed next?
One number for each entry.

Worked examples, 3 compounds total:
compound	recorded_number
COc1c(C#N)c2c(c(OC)c1OC)-c1ccc(OC)c(=O)cc1[C@@H](NC(C)=O)CC2	3.8
CN[C@H]1CCc2cc(OC)c(OC)c(OC)c2-c2ccc(OC)c(=O)cc21	3.63
COC1=C2C(=CC(=O)C1OC)CC[C@H](NC(C)=O)c1cc(=O)c(OC)ccc12 (stereo not given in full)	5.82

Batch of 4 compounds: report Log 1/LD50 for each.
1. COc1cc2c(c(OC)c1OC)-c1ccc(SC)c(=O)cc1[C@@H](NC(=O)NCCCl)CC2
2. COc1cc2c(c(OC)c1OC)-c1cc/c(=N\Cc3ccccc3)c(O)cc1[C@@H](NC(C)=O)CC2
3. COC(=O)C(N)CCCC/N=c1\ccc2c(cc1O)[C@@H](NC(C)=O)CCc1cc(OC)c(OC)c(OC)c1-2 (stereo not given in full)
4. COc1c(CO)c2c(c(OC)c1OC)-c1ccc(OC)c(=O)cc1[C@@H](NC(C)=O)CC2

Data returned:
1. 4.93
2. 4.28
3. 3
4. 3.4

Batch of 6 compounds: report Log 1/LD50 for each.
1. CCOC(=O)N[C@H]1CCc2cc(OC)c(OC)c(OC)c2-c2ccc(SC)c(=O)cc21
2. COc1cc2c(c(OC)c1OC)-c1ccc(OC)c(=O)cc1[C@@H](NC(=O)CCl)CC2
3. COc1cc2c(c(OC)c1OC)-c1ccc(SC)c(=O)cc1[C@@H](NC(=O)CO)CC2
4. COc1cc2c(c(OC)c1OC)-c1ccc(SC)c(=O)cc1[C@@H](NC(=O)CCl)CC2
5. COc1cc2c(c(OC)c1OC)-c1ccc(OC)c(=O)cc1[C@@H](NC(=O)CF)CC2
6. COc1cc2c(c(OC)c1OC)-c1ccc(SC)c(=O)cc1[C@@H](NC(C)=O)CC2

Data returned:
1. 4.19
2. 5.54
3. 5.66
4. 5.65
5. 5.69
6. 5.62

Batch of 2 compounds: report Log 1/LD50 for each.
1. COc1cc2c(c(OC)c1OC)-c1ccc(OC)c(=O)cc1[C@@H](NC=O)CC2
2. COc1cc2c(c(OC)c1OC)-c1ccc(OC)c(=O)cc1[C@@H](NC(=O)c1ccc([N+](=O)[O-])cc1)CC2

Data returned:
5.16
4.41

Batch of 5 compounds: report Log 1/LD50 for each.
1. COc1c(C=O)c2c(c(OC)c1OC)-c1ccc(OC)c(=O)cc1[C@@H](NC(C)=O)CC2
2. COc1cc2c(c(OC)c1OC)-c1ccc(SC)c(=O)cc1[C@@H](NO[C@H]1O[C@@H](COC(C)=O)[C@H](OC(C)=O)[C@@H](OC(C)=O)[C@@H]1OC(C)=O)CC2
3. CNc1ccc2c(cc1=O)[C@@H](NC(C)=O)CCc1cc(OC)c(OC)c(OC)c1-2
4. COc1cc2c(c(OC)c1OC)-c1ccc(SC)c(=O)cc1[C@@H](NC(=O)C(F)(F)F)CC2
5. COc1cc2c(c(OC)c1OC)-c1ccc(SC)c(=O)cc1[C@@H](N)CC2

Data returned:
4.14
3.81
5.72
5.51
3.75

The reported numbers originate from ChEMBL document CHEMBL1121841.
